Target: Tyrosyl-tRNA synthetase, putative (Trypanosoma cruzi (strain CL Brener))
Assay: Trypanosoma cruzi tyrosyl tRNA synthetase (TcYRS) SOP
Format: functional
Parameters: scale not given: direction of the effect not stated beside the values
Details: 30 µM
Each item that follows carries a reported Percent Effect.
Your answer is read as %, so omit the unit and give the number.

>>> df
                                   compound    readout_name  endpoint_result
0  O=C(NCCNc1ncccn1)C1CC(=O)N(CC(F)(F)F)C1 (centres undefined)  Percent Effect             13.6
1  Fc1ccccc1Cc1noc(CN2CCCC(CN3CCCC3)C2)n1 (centres undefined)  Percent Effect             12.2
2  CN(c1ccc(C(=O)NCCCN2CCOCC2)c(Cl)c1)S(C)(=O)=O  Percent Effect             11.1
3  O=C(Cc1ccccc1)N1CCC2(CC(=O)N(c3cccc(F)c3)C2)C1 (centres undefined)  Percent Effect              3.7
4    CCn1ccnc1CN1CCC(CCC(=O)Nc2ccccc2Cl)CC1  Percent Effect             7.32
5  CCCc1nc(C(=O)N2CCCn3nc(CCC(=O)O)cc3C2)cs1  Percent Effect             9.76
6       COc1ccc(CNCc2ccc(N3CCCCC3)nc2)cc1OC  Percent Effect             25.3
7  CSc1ccccc1C(C(=O)O)N1CCN(Cc2ccccn2)CC1 (centres undefined)  Percent Effect             19.5

Consider now this further compound.
Exercise: If you can, please state the reported Percent Effect value of Cc1nnsc1C(=O)N1CCC2(CC1)c1nc[nH]c1CCN2CC(C)C .
Key: 6.17
